These data points were gathered from patent US4558127A.

experiment: Toxicity (LD50), intraperitoneal administration, mongrel white mice, Burns method; type: in vivo, mouse; details: mouse, in vivo, ip, mice, intraperitoneal; I, II, III as emulsion in 10% aqueous Tween-80; IV, Ftorafur, 5-fluorouracyl as aqueous solutions
Labelling field: enter met if recorded LD50 is less than 400 mg/kg. Enter not met if it equals or exceeds that cut-off.

>  <MOLECULE>
O=c1[nH]c(=O)n(C2CCCO2)cc1F (stereo not drawn) [Ftorafur, 1-(α-furanidyl)-5-fluorouracyl, reference compound]

>  <CLASSIFICATION>
not met

$$$$
>  <MOLECULE>
CC1(C)C=C(C(=O)n2cc(F)c(=O)n(C(=O)C3=CC(C)(C)N([O])C3(C)C)c2=O)C(C)(C)N1[O] [I]

>  <CLASSIFICATION>
met

$$$$
>  <MOLECULE>
CC1(C)C=C(C(=O)n2c(=O)[nH]cc(F)c2=O)C(C)(C)N1[O] [III]

>  <CLASSIFICATION>
not met

$$$$
>  <MOLECULE>
CC1(C)C=C(C(=O)n2cc(F)c(=O)[nH]c2=O)C(C)(C)N1[O] [II]

>  <CLASSIFICATION>
met

$$$$
>  <MOLECULE>
O=c1[nH]cc(F)c(=O)[nH]1 [5-fluorouracyl, reference compound]

>  <CLASSIFICATION>
met

$$$$
